Molecular target: Human EphA2 (ephrin receptor A2) on cells (human, UniProt P29317 25-976)
Sequence (P29317 25-976): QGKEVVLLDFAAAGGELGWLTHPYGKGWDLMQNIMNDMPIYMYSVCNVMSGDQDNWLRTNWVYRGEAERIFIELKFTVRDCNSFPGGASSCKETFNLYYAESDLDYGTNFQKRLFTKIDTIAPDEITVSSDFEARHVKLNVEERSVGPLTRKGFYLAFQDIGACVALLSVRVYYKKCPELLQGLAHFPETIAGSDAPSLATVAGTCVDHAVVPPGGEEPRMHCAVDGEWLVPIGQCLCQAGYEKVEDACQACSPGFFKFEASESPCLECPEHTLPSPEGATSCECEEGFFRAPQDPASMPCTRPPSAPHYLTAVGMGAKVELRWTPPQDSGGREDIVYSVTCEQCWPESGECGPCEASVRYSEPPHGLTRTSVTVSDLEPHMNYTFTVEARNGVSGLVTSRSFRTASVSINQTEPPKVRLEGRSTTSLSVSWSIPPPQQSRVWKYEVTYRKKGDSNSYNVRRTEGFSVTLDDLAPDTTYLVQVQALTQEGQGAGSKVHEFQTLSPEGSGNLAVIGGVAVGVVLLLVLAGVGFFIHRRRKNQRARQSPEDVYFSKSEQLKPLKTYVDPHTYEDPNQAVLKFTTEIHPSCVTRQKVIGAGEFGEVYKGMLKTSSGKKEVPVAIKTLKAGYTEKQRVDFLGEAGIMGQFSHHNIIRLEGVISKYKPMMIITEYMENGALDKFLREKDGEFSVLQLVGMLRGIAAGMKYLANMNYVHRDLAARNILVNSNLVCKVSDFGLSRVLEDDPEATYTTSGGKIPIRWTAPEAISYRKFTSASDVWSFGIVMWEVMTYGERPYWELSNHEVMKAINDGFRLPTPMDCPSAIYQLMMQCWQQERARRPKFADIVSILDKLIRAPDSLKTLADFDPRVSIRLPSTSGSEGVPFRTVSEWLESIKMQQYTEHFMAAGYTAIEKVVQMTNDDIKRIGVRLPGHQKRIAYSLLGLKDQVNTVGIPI
Test: flow cytometry, A549 cells
Provide the recorded Flow Delta activity (MedFI) for the entries that follow.
Respond numerically; units are MedFI and should not be typed.

Would you mind telling me what Flow Delta activity (MedFI) value was observed for AB-009806 (antibody, mouse IgG2a, V domains shown) VH: QVQLQQWGAGLLKPSETLSLTCAVYGGSFSDYYWSWIRQPPGKGLEWIGEINHSGSTNYNPSLKSRVTISVDPSKNQFSLKLTSVTAADTAVYYCAKPFRPHCTNGVCYSGDAFDIWGQGTMVTVSS VL: SYVLTQPPSVSVAPGQTARITCGGNNIGTKNVHWYQQKPGQAPVLVVYDDSDRPSGIPEQFSGSNSGNTATLTISRVEAGDEADYYCQVWDSSSDHLVFGGGTKLTVL ?
231000

Same lookup for AB-009805 (antibody, mouse IgG2a, V domains shown) VH: QVQLQQWGAGLLKPSETLSLTCAVYGGSLSDYHWSWIRQPPGKGLEWIGEINHSGSTNYNPSLKSRVTISVDTSKNQFSLKLSSVSAADTAVYYCAKPFRPHCTNGVCHSGDAFDIWGQGTMATVSS VL: SYVLTQPPSVSVAPGQTARITCGGNNIGSKNVHWYQQKPGQAPVLVVYDDSDRPSGIPEQFSGSNSGNTATLTISRVEAGDEADYYCQVWDSSSDHLVFGGGTKLTVL , please.
75100

Same lookup for AB-009808 (antibody, mouse IgG2a, V domains shown) VH: QVQLQQWGAGLLKPSETLSLTCAVYGGSFSDYYWSWIRQPPGKGLEWIGEINHSGSTNYNPSLKSRVTISVDPSKNQFSLKLTSVTAADTAVYYCAKPFRPHCTNGVCYSGDAFDIWGQGTMVTVSS VL: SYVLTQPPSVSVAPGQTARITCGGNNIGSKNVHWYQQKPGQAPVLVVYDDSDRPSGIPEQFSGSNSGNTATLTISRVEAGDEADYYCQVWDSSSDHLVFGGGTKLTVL , please.
29500

Same lookup for AB-009807 (antibody, mouse IgG2a, V domains shown) VH: QVQLQQWGAGLLKPSETLSLTCAVYGGSFNDYYWSWIRQPPGKGLEWIGEVNHSGSTSYNPSLKSRVTISVDTSKNQFSLKLSSVTAADTAVYYCAKPFRPHCTNGVCYSGDAFDIWGQGTMVTVSS VL: SYVLTQPPSVSVAPGQTARITCGGNNIGSKNVHWYQQKPGQAPALVVYDDSDRPSGIPEQFSGSNSGNTATLTISRVEAGDEADYYCQVWDSSSDHLVFGGGTKLTVL , please.
12700
